- measured on: TRKB (Homo sapiens (Human), UniProt Q16620)
- Sequence (Q16620 32-822 limits assumed): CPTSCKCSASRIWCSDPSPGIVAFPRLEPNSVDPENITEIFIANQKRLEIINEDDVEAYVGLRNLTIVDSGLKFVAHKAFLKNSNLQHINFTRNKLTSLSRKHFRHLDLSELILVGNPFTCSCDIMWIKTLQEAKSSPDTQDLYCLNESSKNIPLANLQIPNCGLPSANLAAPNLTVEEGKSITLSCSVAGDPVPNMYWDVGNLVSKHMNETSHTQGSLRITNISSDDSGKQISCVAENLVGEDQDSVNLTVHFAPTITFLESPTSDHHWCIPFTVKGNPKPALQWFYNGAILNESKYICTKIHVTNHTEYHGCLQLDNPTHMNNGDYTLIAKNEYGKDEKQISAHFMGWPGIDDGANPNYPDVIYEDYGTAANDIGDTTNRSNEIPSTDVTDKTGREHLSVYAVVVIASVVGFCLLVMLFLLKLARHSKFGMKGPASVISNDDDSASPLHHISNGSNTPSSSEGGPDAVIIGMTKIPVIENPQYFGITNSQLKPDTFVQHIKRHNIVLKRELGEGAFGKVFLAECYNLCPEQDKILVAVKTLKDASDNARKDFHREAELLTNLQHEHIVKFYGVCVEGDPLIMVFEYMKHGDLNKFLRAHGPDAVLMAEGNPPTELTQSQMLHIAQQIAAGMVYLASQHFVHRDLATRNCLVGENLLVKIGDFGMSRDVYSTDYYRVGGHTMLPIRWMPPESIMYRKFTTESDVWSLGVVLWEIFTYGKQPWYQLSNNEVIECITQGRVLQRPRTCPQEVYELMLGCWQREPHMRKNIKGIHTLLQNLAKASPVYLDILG
- method summary: cell-based
- setup conditions: TrkB cell potency, TRKB PathHunter cell line
- Procedure: After the Detection Reagent addition, plates are covered and incubated at room temperature for 60 minutes. […] Test compound data are expressed as percentage inhibition defined by HPE and ZPE values for each plate. […] After reagent addition, plates are covered and incubated at room temperature for 60 minutes. Luminescence signal is read using an Envision. Test compound data are expressed as percentage inhibition defined by HPE and ZPE values for each plate. […]

# query smiles, display unit, IC50
rows = [
    ("C[C@H](CO)n1cc(C(=O)c2cncc(NC(=O)Cn3cc(C(F)(F)F)nn3)c2)c2cncnc21", "nM", 1770),
    ("CC(C)(CO)n1cc(C(=O)c2cncc(NC(=O)Cn3ccc(C4CC4)n3)c2)c2cnc(N)nc21", "nM", 5),
    ("C[C@@H](CO)n1cc(C(=O)c2cncc(NC(=O)Cn3ccc(C(F)(F)F)n3)c2)c2cncnc21", "nM", 22),
    ("CC(C)(CO)n1cc(C(=O)c2cncc(NC(=O)Cc3ccc(F)cc3F)c2)c2cnc(N)nc21", "nM", 2.1),
]

====

Catalogue of compounds with associated pIC50
- measured on: UniProtKB P04629
- method summary: Isolated TRK enzyme assay (HTRF KinEASE-TK), TRKA
- Type: biochemical
- setup conditions: read-out: Trka enzyme (IC50)
pIC50: −log10 of the molar value.
measured quantity: pIC50

# query smiles, measured quantity, value reported
measured = [
    ("CC(C)n1cc(C(=O)c2cncc(NC(=O)c3cnc4ccccc4c3)c2)c2cncnc21", "pIC50", 6.86),
    ("Cn1cc(C(=O)c2cncc(NC(=O)CCc3ccc(Cl)cc3)c2)c2cncnc21", "pIC50", 5.51),
    ("CC(C)n1cc(C(=O)c2cncc(NC(=O)c3cccnn3)c2)c2cncnc21", "pIC50", 5.01),
    ("CC(C)(CO)n1cc(C(=O)c2cncc(NC(=O)Cc3ccc(F)c(F)c3)c2)c2cnc(N)nc21", "pIC50", 7.92),
]

====

- measured on: TRKB (Homo sapiens (Human))
- method summary: biochemical
- setup conditions: isolated TRKB enzyme; read-out: TrkB enzyme potency
pIC50: −log10 of the molar value.

# compound, measured on, pIC50
measured = [
    ("CC(C)(CO)n1cc(C(=O)c2cncc(NC(=O)Cc3ccc(F)cc3F)c2)c2cnc(N)nc21", "TRKB (Homo sapiens (Human))", 6.84),
    ("CC(CO)n1cc(C(=O)c2cncc(NC(=O)Cc3ccc(Cl)cn3)c2)c2cnc(N)nc21 (single isomer, unassigned)", "TRKB (Homo sapiens (Human))", 6.65),
    ("C[C@@H](CO)n1cc(C(=O)c2cncc(NC(=O)Cc3ccc(Cl)cn3)c2)c2cncnc21", "TRKB (Homo sapiens (Human))", 6.11),
    ("CC(C)(CO)n1cc(C(=O)c2cncc(NC(=O)Cc3ccc(C(F)(F)F)cc3)c2)c2cnc(N)nc21", "TRKB (Homo sapiens (Human))", 7.40),
    ("CC(C)(CO)n1cc(C(=O)c2cncc(NC(=O)Cc3ccc(C(F)(F)F)cc3)c2)c2cncnc21", "TRKB (Homo sapiens (Human))", 7.26),
    ("CC(C)(C)n1cc(C(=O)c2cncc(NC(=O)Cn3cc(C4CC4)cn3)c2)c2cncnc21", "TRKB (Homo sapiens (Human))", 7.39),
    ("C[C@H](CO)n1cc(C(=O)c2cncc(NC(=O)Cc3ccc(C(F)(F)F)cc3)c2)c2cncnc21", "TRKB (Homo sapiens (Human))", 6.20),
]

====

Catalogue of compounds with associated pIC50
- measured on: TRKA (Homo sapiens (Human), UniProt P04629)
- Sequence (P04629 441-796): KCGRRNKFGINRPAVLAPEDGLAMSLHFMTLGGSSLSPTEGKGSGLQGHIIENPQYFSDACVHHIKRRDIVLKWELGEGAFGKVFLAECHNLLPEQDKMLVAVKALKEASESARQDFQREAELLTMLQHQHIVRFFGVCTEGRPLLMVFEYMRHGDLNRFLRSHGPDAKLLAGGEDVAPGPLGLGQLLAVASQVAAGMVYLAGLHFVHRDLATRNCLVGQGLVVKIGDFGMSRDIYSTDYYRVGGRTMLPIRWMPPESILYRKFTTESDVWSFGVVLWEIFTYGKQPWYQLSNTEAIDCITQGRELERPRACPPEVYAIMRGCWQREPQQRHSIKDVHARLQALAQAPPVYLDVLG
- method summary: Isolated TRK enzyme assay (HTRF KinEASE-TK), TRKA
- Type: biochemical
- setup conditions: read-out: Trka enzyme (IC50)
pIC50: −log10 of the molar value.

# compound, measured on, pIC50
records = [
    ("CC(C)n1cc(C(=O)c2cncc(NC(=O)c3cc4cscc4cn3)c2)c2cncnc21 [Example 478]", "TRKA (Homo sapiens (Human), UniProt P04629)", 6.23),
    ("Cn1cc(C(=O)c2cncc(NC(=O)Cc3c(F)cccc3Cl)c2)c2cncnc21 [Example 180]", "TRKA (Homo sapiens (Human), UniProt P04629)", 5.51),
    ("Cn1cc(C(=O)c2cncc(NC(=O)Cc3ccc(S(C)(=O)=O)cc3)c2)c2cncnc21 [Example 173]", "TRKA (Homo sapiens (Human), UniProt P04629)", 5.01),
    ("Cc1n[nH]cc1C(=O)Nc1cncc(C(=O)c2cn(C(C)C)c3ncncc23)c1 [Example 411]", "TRKA (Homo sapiens (Human), UniProt P04629)", 5.01),
    ("O=C(Cn1ccc(C(F)(F)F)n1)Nc1cncc(C(=O)c2cn(C3(CO)CC3)c3ncncc23)c1 [Example 525]", "TRKA (Homo sapiens (Human), UniProt P04629)", 8.02),
    ("Cc1cnc2[nH]cc(C(=O)Nc3cncc(C(=O)c4cn(C(C)C)c5ncncc45)c3)c2c1 [Example 412]", "TRKA (Homo sapiens (Human), UniProt P04629)", 8.29),
    ("CC(CO)(CO)n1cc(C(=O)c2cncc(NC(=O)Cc3ccc(C#N)c(C(F)(F)F)c3)c2)c2cncnc21 [Example 261]", "TRKA (Homo sapiens (Human), UniProt P04629)", 6.89),
    ("CC(C)n1cc(C(=O)c2cncc(NC(=O)C(CO)c3ccccc3)c2)c2cncnc21 (centres unmarked) [Example 339]", "TRKA (Homo sapiens (Human), UniProt P04629)", 6.60),
]

====

- measured on: TRKA (Homo sapiens (Human), UniProt P04629)
- method summary: Isolated TRK enzyme assay (HTRF KinEASE-TK), TRKA
- Type: biochemical
- setup conditions: read-out: Trka enzyme (IC50)
measured quantity: IC50 (µM)

# query smiles, measured on, value reported
measured = [
    ("Cc1cc(C(=O)Nc2cncc(C(=O)c3cn(C(C)C)c4ncncc34)c2)ccn1", "TRKA (Homo sapiens (Human), UniProt P04629)", 0.451),
    ("CC(CO)(CO)n1cc(C(=O)c2cncc(NC(=O)Cc3ccc(C#N)cc3)c2)c2cncnc21", "TRKA (Homo sapiens (Human), UniProt P04629)", 0.274),
    ("CC(C)n1cc(C(=O)c2cncc(NC(=O)c3n[nH]c4ncccc34)c2)c2cncnc21", "TRKA (Homo sapiens (Human), UniProt P04629)", 0.144),
    ("Cn1cc(C(=O)c2cncc(NC(=O)Cc3ccccc3C(F)(F)F)c2)c2cncnc21", "TRKA (Homo sapiens (Human), UniProt P04629)", 3.1),
    ("COCC(C)(C)n1cc(C(=O)c2cncc(NC(=O)Cc3ccc(Cl)cn3)c2)c2cnc(N)nc21", "TRKA (Homo sapiens (Human), UniProt P04629)", 0.00388),
    ("CC1(n2cc(C(=O)c3cncc(NC(=O)Cc4ccc(C(F)(F)F)c(F)c4)c3)c3cncnc32)COC1", "TRKA (Homo sapiens (Human), UniProt P04629)", 0.0179),
    ("CC(C)n1cc(C(=O)c2cncc(NC(=O)Cn3ccc(-c4ccccn4)n3)c2)c2cncnc21", "TRKA (Homo sapiens (Human), UniProt P04629)", 1.58),
    ("Cc1cc(C)n(CC(=O)Nc2cncc(C(=O)c3cn(C(C)C)c4ncncc34)c2)n1", "TRKA (Homo sapiens (Human), UniProt P04629)", 0.102),
]

====

- measured on: MDR1 (Homo sapiens (Human))
- Sequence (P08183 whole entry): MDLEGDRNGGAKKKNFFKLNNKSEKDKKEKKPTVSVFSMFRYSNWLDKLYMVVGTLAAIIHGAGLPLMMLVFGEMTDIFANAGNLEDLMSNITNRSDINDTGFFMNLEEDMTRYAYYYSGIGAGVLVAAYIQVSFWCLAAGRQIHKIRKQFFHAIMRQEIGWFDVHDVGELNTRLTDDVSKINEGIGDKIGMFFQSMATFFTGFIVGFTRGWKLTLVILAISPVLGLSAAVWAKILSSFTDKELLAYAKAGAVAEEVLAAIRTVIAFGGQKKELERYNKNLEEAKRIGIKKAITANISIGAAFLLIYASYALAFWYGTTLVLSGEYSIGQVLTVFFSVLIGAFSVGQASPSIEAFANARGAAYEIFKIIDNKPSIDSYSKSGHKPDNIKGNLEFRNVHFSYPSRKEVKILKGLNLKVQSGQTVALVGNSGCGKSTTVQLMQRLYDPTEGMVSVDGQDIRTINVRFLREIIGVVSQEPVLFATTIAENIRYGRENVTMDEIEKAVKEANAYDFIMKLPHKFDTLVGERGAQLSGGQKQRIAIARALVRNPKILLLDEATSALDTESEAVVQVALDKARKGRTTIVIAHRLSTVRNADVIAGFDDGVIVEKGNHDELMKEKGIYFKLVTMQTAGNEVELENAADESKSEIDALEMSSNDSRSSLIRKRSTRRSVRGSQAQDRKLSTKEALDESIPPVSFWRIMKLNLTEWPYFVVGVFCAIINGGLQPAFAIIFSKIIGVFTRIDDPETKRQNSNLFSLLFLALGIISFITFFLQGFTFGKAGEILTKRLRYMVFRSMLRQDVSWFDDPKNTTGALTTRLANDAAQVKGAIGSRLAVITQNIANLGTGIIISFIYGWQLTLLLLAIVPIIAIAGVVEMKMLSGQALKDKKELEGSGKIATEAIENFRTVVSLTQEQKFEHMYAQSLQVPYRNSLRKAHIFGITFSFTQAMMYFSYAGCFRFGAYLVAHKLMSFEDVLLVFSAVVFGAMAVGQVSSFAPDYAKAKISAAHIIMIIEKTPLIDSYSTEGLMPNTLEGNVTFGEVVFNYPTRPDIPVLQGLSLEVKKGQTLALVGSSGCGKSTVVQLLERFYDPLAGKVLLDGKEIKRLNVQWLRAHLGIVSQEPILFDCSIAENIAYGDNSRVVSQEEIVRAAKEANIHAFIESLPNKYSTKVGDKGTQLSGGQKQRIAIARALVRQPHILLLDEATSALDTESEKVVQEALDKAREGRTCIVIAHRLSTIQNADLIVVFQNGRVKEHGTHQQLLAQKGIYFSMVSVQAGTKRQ
- method summary: MDCK-MDR1 assay (in vitro brain penetration)
- Assay type: in vitro ADME
- setup conditions: human, MDCK-MDR1, MDCK-MDR1, B to A; read-out: MDCK MDR1 Papp BA
Catalogue of compounds with associated Papp B→A

# compound, measured on, Papp B→A (×10⁻⁶ cm/s)
records = [
    ("CC(CO)n1cc(C(=O)c2cncc(NC(=O)Cc3ccc(Cl)cn3)c2)c2cnc(N)nc21 (single isomer, unassigned)", "MDR1 (Homo sapiens (Human))", 5.3),
    ("CC(C)(C)n1cc(C(=O)c2cncc(NC(=O)Cc3ccc(Cl)cn3)c2)c2cncnc21", "MDR1 (Homo sapiens (Human))", 16),
    ("C[C@@H](CO)n1cc(C(=O)c2cncc(NC(=O)Cn3cc(C(F)(F)F)nn3)c2)c2cncnc21", "MDR1 (Homo sapiens (Human))", 1),
    ("CC(C)(C)n1cc(C(=O)c2cncc(NC(=O)Cn3ccc(C(F)(F)F)n3)c2)c2cncnc21", "MDR1 (Homo sapiens (Human))", 14),
    ("C[C@@H](CO)n1cc(C(=O)c2cncc(NC(=O)Cn3ccc(C(F)(F)F)n3)c2)c2cncnc21", "MDR1 (Homo sapiens (Human))", 3.1),
    ("C[C@H](CO)n1cc(C(=O)c2cncc(NC(=O)Cc3ccc(C(F)(F)F)cc3)c2)c2cncnc21", "MDR1 (Homo sapiens (Human))", 17),
    ("CC(CO)n1cc(C(=O)c2cncc(NC(=O)Cn3ccc(C(F)(F)F)n3)c2)c2cnc(N)nc21 (single isomer, unassigned)", "MDR1 (Homo sapiens (Human))", 2.1),
    ("Cc1cc(C(F)(F)F)nn1CC(=O)Nc1cncc(C(=O)c2cn([C@@H](C)CO)c3ncncc23)c1", "MDR1 (Homo sapiens (Human))", 14),
    ("C[C@@H](CO)n1cc(C(=O)c2cncc(NC(=O)Cc3ccc(C(F)(F)F)cc3)c2)c2cncnc21", "MDR1 (Homo sapiens (Human))", 20),
    ("CC(CO)n1cc(C(=O)c2cncc(NC(=O)Cn3cc(C4CC4)cn3)c2)c2cncnc21 (stereo not drawn)", "MDR1 (Homo sapiens (Human))", 13),
    ("CC(C)(C)n1cc(C(=O)c2cncc(NC(=O)Cn3cc(C4CC4)cn3)c2)c2cncnc21", "MDR1 (Homo sapiens (Human))", 20),
    ("CC(C)(CO)n1cc(C(=O)c2cncc(NC(=O)Cc3ccc(F)cn3)c2)c2cnc(N)nc21", "MDR1 (Homo sapiens (Human))", 11),
    ("CC(C)(CO)n1cc(C(=O)c2cncc(NC(=O)Cc3ccc(C(F)(F)F)cc3)c2)c2cnc(N)nc21", "MDR1 (Homo sapiens (Human))", 12),
    ("CC(C)(CO)n1cc(C(=O)c2cncc(NC(=O)Cn3cc(C(F)(F)F)nn3)c2)c2cncnc21", "MDR1 (Homo sapiens (Human))", 3.4),
    ("CC(CO)n1cc(C(=O)c2cncc(NC(=O)Cc3ccc(Cl)cc3)c2)c2cnc(N)nc21 (single isomer, unassigned)", "MDR1 (Homo sapiens (Human))", 11),
]

Data origin: patent US8846698B2
